- EXPERIMENTAL DETAILS: solvent given as SMILES
- STUDY CONDITIONS: in CC#N
We begin with a simple list: items and their reported absorption maximum.
Write it as a number; the unit nm goes unstated.

• CCN(CC)c1ccc2c(-c3ccccc3C(=O)[O-])c3ccc(=[N+](CC)CC)cc-3oc2c1 = 555

Consider now this further compound.
**Query** Retrieve absorption maximum measured for `CCN1c2ccccc2Sc2cc(/C=C(\C#N)c3ccccc3)ccc21` and print it.
**Result** 409

====

- EXPERIMENTAL DETAILS: solvent given as SMILES
- STUDY CONDITIONS: in CCOC(C)=O
We begin with a simple list: items and their reported absorption maximum.
Write it as a number; the unit nm goes unstated.

* CCn1c2ccccc2c2cc(/C=C/c3cc(/C=C/c4ccc5c(c4)c4ccccc4n5CC)nc(SC)n3)ccc21 | 402
* CCn1c(-c2ccc(N(c3ccccc3)c3cccc4ccccc34)cc2)c(-c2ccc3ccccc3c2)c(-c2ccc3ccccc3c2)c1-c1ccc(N(c2ccccc2)c2cccc3ccccc23)cc1 | 296
* O=c1oc2ccccc2cc1-c1nc2ccccc2o1 | 352
* COc1ccc(-c2cc(-c3ccc(C)cc3)c(C#N)c(OC)n2)cc1 | 335
* CCC1=C(C)C2=C(C)c3c(C)c(-c4csc(N5CCOCC5)n4)c(C)n3[B-](F)(F)[N+]2=C1C | 520

**Query** Retrieve absorption maximum measured for `c1ccc(N(c2ccccc2)c2ccc(-c3cccc4nc5ccccc5cc34)cc2)cc1` and print it.
**Result** 390

**Query** Retrieve absorption maximum measured for `COc1ccc(-n2c3ccccc3c3cc(/C=C/C(=C(C#N)C#N)c4ccccc4)ccc32)cc1` and print it.
**Result** 443

**Query** Retrieve absorption maximum measured for `CC(=O)c1nc(-c2ccc(N(c3ccccc3)c3ccccc3)cc2)oc1C` and print it.
**Result** 326

**Query** Retrieve absorption maximum measured for `[C-]#[N+]c1ccc(-c2ccc(N)cc2)cc1` and print it.
**Result** 315

**Query** Retrieve absorption maximum measured for `CCOC(=O)/C(C#N)=C\c1ccc2c(c1)c1ccccc1n2-c1ccc(C)cc1` and print it.
**Result** 400

**Query** Retrieve absorption maximum measured for `CC1=CC(C)=[N+]2C1=C(c1ccc(N(C)C)cc1)c1c(C)cc(C)n1[B-]2(F)F` and print it.
**Result** 498

**Query** Retrieve absorption maximum measured for `C#CCN1C(=O)/C(=C/c2cc(OC(C)C)ccc2OC(C)C)N=C1C` and print it.
**Result** 393

**Query** Retrieve absorption maximum measured for `O=C1Nc2ccccc2/C1=C/C(=O)c1ccc(Cl)cc1Cl` and print it.
**Result** 335

**Query** Retrieve absorption maximum measured for `CCOC(=O)c1sc2nc(-c3ccccc3)c(C)c(C#N)c2c1N` and print it.
**Result** 419

**Query** Retrieve absorption maximum measured for `CCn1c(-c2ccc(-c3ccc4c(c3)C3(c5ccccc5-c5ccccc53)c3ccccc3-4)cc2)c(-c2ccc3ccccc3c2)c(-c2ccc3ccccc3c2)c1-c1ccc(-c2ccc3c(c2)C2(c4ccccc4-c4ccccc42)c2ccccc2-3)cc1` and print it.
**Result** 326

**Query** Retrieve absorption maximum measured for `O=c1c2ccccc2n2c3ccc(-c4ccccc4)cc3c(=O)c3cccc1c32` and print it.
**Result** 439

**Query** Retrieve absorption maximum measured for `COc1nc(Nc2ccc3c4c(cccc24)C(=O)c2ccccc2-3)nc(OC)n1` and print it.
**Result** 418.94

**Query** Retrieve absorption maximum measured for `CCN(CC)/C(C)=N\c1ccc2c3c(cccc13)C(=O)c1ccccc1-2` and print it.
**Result** 463

**Query** Retrieve absorption maximum measured for `O=Cc1c(O)c(-c2nc3ccccc3s2)cc2ccccc12` and print it.
**Result** 352
